# assay remarks: Plasma pharmacokinetics of oral SNDX-275 in patients with advanced and refractory solid tumors or lymphoma (Example 2)
# Format: in vivo
# conditions: human, plasma, oral, q14-day schedule; read-out: median Tmax
readout type: Tmax

Param item = Nc1ccccc1NC(=O)c1ccc(CNC(=O)OCc2cccnc2)cc1 ; retrieve measured Tmax.
~2 h

====

# assay remarks: clinical
# conditions: human, in vivo, 2 mg/m2, T1/2
readout type: half-life (h)
Please reply with the bare figure in h and do not write the unit itself.

Param item = Nc1ccccc1NC(=O)c1ccc(CNC(=O)OCc2cccnc2)cc1 ; retrieve measured half-life.
100

====

# assay remarks: clinical
# conditions: human, in vivo, 5 mg/m2, T1/2
readout type: half-life (h)
Please reply with the bare figure in h and do not write the unit itself.

Param item = Nc1ccccc1NC(=O)c1ccc(CNC(=O)OCc2cccnc2)cc1 [SNDX-275] ; retrieve measured half-life.
112

====

# assay remarks: clinical
# conditions: human, in vivo, 5 mg/m2, Median Tmax
readout type: Tmax (min)
Please reply with the bare figure in min and do not write the unit itself.

Param item = Nc1ccccc1NC(=O)c1ccc(CNC(=O)OCc2cccnc2)cc1 ; retrieve measured Tmax.
30

====

# assay remarks: clinical
# conditions: human, in vivo, 4 mg/m2, Mean AUC
readout type: AUC (ng·h/mL)
Please reply with the bare figure in ng·h/mL and do not write the unit itself.

Param item = Nc1ccccc1NC(=O)c1ccc(CNC(=O)OCc2cccnc2)cc1 ; retrieve measured AUC.
323

====

# assay remarks: clinical
# conditions: human, in vivo, 6 mg/m2, Mean AUC
readout type: AUC (ng·h/mL)
Please reply with the bare figure in ng·h/mL and do not write the unit itself.

Param item = Nc1ccccc1NC(=O)c1ccc(CNC(=O)OCc2cccnc2)cc1 ; retrieve measured AUC.
459

====

# assay remarks: Plasma pharmacokinetics of oral SNDX-275 in patients with advanced and refractory solid tumors or lymphoma (Example 2)
# Format: in vivo
# conditions: human, plasma, oral, 2 mg/m2, 2 mg/m^2, q14-day, first dose, fed, 3 patients; read-out: Tmax Median
# Method: The initial dosing schedule was daily oral administration for 28 days and 14-day recovery period, constituting a 42-day cycle. […] The area under the plasma concentration versus time curve (AUC) was calculated using the linear trapezoidal method from time zero to the time of the final quantifiable concentration (AUCtf). […]
readout type: Tmax

Param item = Nc1ccccc1NC(=O)c1ccc(CNC(=O)OCc2cccnc2)cc1 ; retrieve measured Tmax.
6 h

====

# assay remarks: Plasma pharmacokinetics of oral SNDX-275 in patients with advanced and refractory solid tumors or lymphoma (Example 2)
# Assay type: in vivo
# conditions: human, plasma, oral, 10 mg/m2, 10 mg/m^2, q14-day, first dose, fed, 6 patients; read-out: AUC Mean
readout type: AUC (ng·h/mL)
Please reply with the bare figure in ng·h/mL and do not write the unit itself.

Param item = Nc1ccccc1NC(=O)c1ccc(CNC(=O)OCc2cccnc2)cc1 ; retrieve measured AUC.
529

====

# assay remarks: clinical
# conditions: human, in vivo, 2 mg/m2, Tmax
readout type: Tmax (min)
Please reply with the bare figure in min and do not write the unit itself.

Param item = Nc1ccccc1NC(=O)c1ccc(CNC(=O)OCc2cccnc2)cc1 [SNDX-275] ; retrieve measured Tmax.
30

====

# assay remarks: Plasma pharmacokinetics of oral SNDX-275 in patients with advanced and refractory solid tumors or lymphoma (Example 2)
# Format: in vivo
# conditions: human, plasma, oral, 2 mg/m2, 2 mg/m^2, q14-day, first dose, fed, 3 patients
readout type: Cmax (ng/mL)
Please reply with the bare figure in ng/mL and do not write the unit itself.

Param item = Nc1ccccc1NC(=O)c1ccc(CNC(=O)OCc2cccnc2)cc1 ; retrieve measured Cmax.
1.72

====

# assay remarks: clinical
# conditions: human, in vivo, 2 mg/m2, AUC(0-48)
readout type: AUC(0-t)
Give your result as the value with the unit written after it.

Param item = Nc1ccccc1NC(=O)c1ccc(CNC(=O)OCc2cccnc2)cc1 ; retrieve measured AUC(0-t).
60.1 ng·h/mL

====

# assay remarks: Plasma pharmacokinetics of oral SNDX-275 in adults with advanced acute leukemias (Example 3)
# Type: in vivo, human
# conditions: human, plasma, oral, 4 mg/m2; 4 mg/m^2, first dose, with food, 7 patients; read-out: Tmax (median)
readout type: Tmax
Give your result as the value with the unit written after it.

Param item = Nc1ccccc1NC(=O)c1ccc(CNC(=O)OCc2cccnc2)cc1 [SNDX-275] ; retrieve measured Tmax.
12 h

====

# assay remarks: clinical
# conditions: human, in vivo, 6 mg/m2, T1/2
readout type: half-life (h)
Please reply with the bare figure in h and do not write the unit itself.

Param item = Nc1ccccc1NC(=O)c1ccc(CNC(=O)OCc2cccnc2)cc1 ; retrieve measured half-life.
102

====

# assay remarks: Plasma pharmacokinetics of oral SNDX-275 in patients with advanced and refractory solid tumors or lymphoma (Example 2)
# Format: in vivo
# conditions: human, plasma, oral, 12 mg/m2, 12 mg/m^2, q14-day, first dose, fed, 4 patients
readout type: Cmax (ng/mL)
Please reply with the bare figure in ng/mL and do not write the unit itself.

Param item = Nc1ccccc1NC(=O)c1ccc(CNC(=O)OCc2cccnc2)cc1 [SNDX-275] ; retrieve measured Cmax.
132

====

# assay remarks: Plasma pharmacokinetics of oral SNDX-275 in adults with advanced acute leukemias (Example 3)
# Assay type: in vivo, human
# conditions: human, plasma, oral, 6 mg/m2; 6 mg/m^2, first dose, with food, n = 5; read-out: T1/2 (mean and SD) (converted)
readout type: half-life (h)
Please reply with the bare figure in h and do not write the unit itself.

Param item = Nc1ccccc1NC(=O)c1ccc(CNC(=O)OCc2cccnc2)cc1 ; retrieve measured half-life.
43.8

====

# assay remarks: Plasma pharmacokinetics of oral SNDX-275 in patients with advanced and refractory solid tumors or lymphoma (Example 2)
# Format: in vivo
# conditions: human, plasma, oral, 4 mg/m2, 4 mg/m^2, q14-day, first dose, fed, 3 patients; read-out: AUC Mean
readout type: AUC (ng·h/mL)
Please reply with the bare figure in ng·h/mL and do not write the unit itself.

Param item = Nc1ccccc1NC(=O)c1ccc(CNC(=O)OCc2cccnc2)cc1 ; retrieve measured AUC.
392

====

# assay remarks: Plasma pharmacokinetics of oral SNDX-275 in patients with advanced and refractory solid tumors or lymphoma (Example 2)
# Type: in vivo
# conditions: human, plasma, oral, 8 mg/m2, 8 mg/m^2, q14-day, first dose, fed, 5 patients; read-out: AUC Mean
readout type: AUC (ng·h/mL)
Please reply with the bare figure in ng·h/mL and do not write the unit itself.

Param item = Nc1ccccc1NC(=O)c1ccc(CNC(=O)OCc2cccnc2)cc1 [SNDX-275] ; retrieve measured AUC.
358

====

# assay remarks: clinical
# conditions: human, in vivo, 2 mg/m2, Median Tmax
readout type: Tmax

Param item = Nc1ccccc1NC(=O)c1ccc(CNC(=O)OCc2cccnc2)cc1 ; retrieve measured Tmax.
36 min

====

# assay remarks: clinical
# conditions: human, in vivo, 5 mg/m2, Mean Cmax
readout type: Cmax (ng/mL)
Please reply with the bare figure in ng/mL and do not write the unit itself.

Param item = Nc1ccccc1NC(=O)c1ccc(CNC(=O)OCc2cccnc2)cc1 [SNDX-275] ; retrieve measured Cmax.
77.3

====

# assay remarks: Plasma pharmacokinetics of oral SNDX-275 in patients with refractory solid tumors or lymphoma (Example 1)
# conditions: human, in vivo, 2 mg/m2
readout type: AUC
Give your result as the value with the unit written after it.

Param item = Nc1ccccc1NC(=O)c1ccc(CNC(=O)OCc2cccnc2)cc1 [SNDX-275] ; retrieve measured AUC.
107 ng·h/mL

====

# assay remarks: clinical
# conditions: human, in vivo, Tmax
readout type: Tmax

Param item = Nc1ccccc1NC(=O)c1ccc(CNC(=O)OCc2cccnc2)cc1 [SNDX-275] ; retrieve measured Tmax.
≤ 1 h

====

# assay remarks: Plasma pharmacokinetics of oral SNDX-275 in adults with advanced acute leukemias (Example 3)
# Assay type: in vivo, human
# conditions: human, plasma, oral, 10 mg/m2; 10 mg/m^2, first dose, with food, 6 patients; read-out: Cmax (mean and SD)
readout type: Cmax (ng/mL)
Please reply with the bare figure in ng/mL and do not write the unit itself.

Param item = Nc1ccccc1NC(=O)c1ccc(CNC(=O)OCc2cccnc2)cc1 ; retrieve measured Cmax.
53.2

====

# assay remarks: Plasma pharmacokinetics of oral SNDX-275 in patients with advanced and refractory solid tumors or lymphoma (Example 2)
# Type: in vivo
# conditions: human, plasma, oral, 10 mg/m2, 10 mg/m^2, q14-day, first dose, fed, 6 patients
readout type: Cmax (ng/mL)
Please reply with the bare figure in ng/mL and do not write the unit itself.

Param item = Nc1ccccc1NC(=O)c1ccc(CNC(=O)OCc2cccnc2)cc1 ; retrieve measured Cmax.
45.1

====

# assay remarks: Plasma pharmacokinetics of oral SNDX-275 in patients with advanced and refractory solid tumors or lymphoma (Example 2)
# Assay type: in vivo
# conditions: human, plasma, oral, 12 mg/m2, 12 mg/m^2, q14-day, first dose, fed, 4 patients; read-out: t1/2 Mean (converted)
readout type: half-life (h)
Please reply with the bare figure in h and do not write the unit itself.

Param item = Nc1ccccc1NC(=O)c1ccc(CNC(=O)OCc2cccnc2)cc1 ; retrieve measured half-life.
45
